src = PubChem BioAssay (NCI)

System: U251 CNS
Assay: NCI-60 one-dose screen, 48 h (100 = growth as untreated, 0 = no growth, -100 = all killed)
Settings: 10 µM unless noted
About 83,000 compounds went through this panel and 20% of them were active in at least one assay; those are over-represented in the sample as a whole.
Kindly supply the reported growth values for the records listed here.
Numbers only, in %.

O=C(/C=C/c1ccco1)c1ccc(Nc2nc(Nc3ccc(F)cc3)nc(Nc3ccc(Cl)cc3)n2)cc1 :: 73.2
CCN(CC)c1nc(SCC(=O)Nc2nc3ccc(C)cc3s2)nc(-c2ccccc2)c1C#N :: 87.6
C[n+]1cccc(CC(=O)NO)c1 :: 87.6

Hey, can you go through the list below and give me growth for every item?
1. COc1ccc(-c2csc(C3=C(O)CN(CCCN4CCCC4=O)C3=N)n2)cc1OC
2. COc1ccc(-c2nc(SCC(=O)Nc3nc(-c4ccccc4)cs3)[nH]c(=O)c2C#N)cc1

Given back:
1: 99; 2: 103
